Listing of entries alongside the reported fold change (FC).
- target: UniProt P08183
- Sequence (P08183 whole entry): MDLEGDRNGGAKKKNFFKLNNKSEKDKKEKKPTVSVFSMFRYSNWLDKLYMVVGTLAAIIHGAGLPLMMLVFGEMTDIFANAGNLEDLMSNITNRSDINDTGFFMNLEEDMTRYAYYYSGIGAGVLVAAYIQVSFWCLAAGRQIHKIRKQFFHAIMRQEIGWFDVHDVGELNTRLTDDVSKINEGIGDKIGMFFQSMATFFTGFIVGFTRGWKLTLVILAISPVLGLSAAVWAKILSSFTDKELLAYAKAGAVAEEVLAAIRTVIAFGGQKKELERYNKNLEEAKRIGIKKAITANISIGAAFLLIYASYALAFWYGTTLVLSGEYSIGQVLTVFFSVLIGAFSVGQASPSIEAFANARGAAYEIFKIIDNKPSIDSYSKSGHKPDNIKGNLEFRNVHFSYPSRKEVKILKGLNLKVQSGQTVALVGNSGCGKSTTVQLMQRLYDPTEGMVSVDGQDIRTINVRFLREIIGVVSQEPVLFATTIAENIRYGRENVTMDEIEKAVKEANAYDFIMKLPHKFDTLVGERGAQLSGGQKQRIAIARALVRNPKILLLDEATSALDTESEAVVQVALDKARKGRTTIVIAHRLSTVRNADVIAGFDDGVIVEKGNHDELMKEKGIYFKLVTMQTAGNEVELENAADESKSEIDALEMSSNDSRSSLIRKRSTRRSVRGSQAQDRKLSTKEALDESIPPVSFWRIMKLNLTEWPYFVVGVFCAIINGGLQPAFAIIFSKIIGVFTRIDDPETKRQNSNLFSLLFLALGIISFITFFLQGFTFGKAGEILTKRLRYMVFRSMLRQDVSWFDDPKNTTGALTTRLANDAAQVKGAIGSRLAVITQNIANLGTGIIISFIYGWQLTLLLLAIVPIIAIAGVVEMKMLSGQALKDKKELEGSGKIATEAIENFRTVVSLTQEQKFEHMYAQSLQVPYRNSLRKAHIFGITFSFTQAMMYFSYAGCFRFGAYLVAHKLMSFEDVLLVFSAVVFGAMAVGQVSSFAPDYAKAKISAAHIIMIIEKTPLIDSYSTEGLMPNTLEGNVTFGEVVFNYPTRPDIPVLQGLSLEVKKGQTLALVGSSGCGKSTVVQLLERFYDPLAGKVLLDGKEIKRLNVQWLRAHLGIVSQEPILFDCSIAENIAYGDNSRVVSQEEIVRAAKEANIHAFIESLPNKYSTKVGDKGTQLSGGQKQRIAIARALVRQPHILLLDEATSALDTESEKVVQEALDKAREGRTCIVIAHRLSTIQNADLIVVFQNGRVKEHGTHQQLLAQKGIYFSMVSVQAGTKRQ
- assay info: Inhibition of full length human ABCB1 expressed in Flp-In-293 cells at 5 uM incubated for 30 mins by calcein-AM uptake assay relative to control
- Format: cell-based
- condition parameters: 0.5 h
endpoint label: fold change (FC)

1) O=c1c(-c2cccc3ccccc23)coc2cc3occ(-c4cccc5ccccc45)c(=O)c3c(O)c12 = 0.64
2) COc1ccc(-c2coc3cc4occ(-c5ccc(OC)cc5)c(=O)c4c(O)c3c2=O)cc1 = 1.3
3) O=c1c(-c2ccccc2)coc2c1c(O)cc1occ(-c3ccccc3)c(=O)c12 = 1.29
4) COc1ccc(-c2coc3c(c(O)cc4occ(-c5ccc(OC)cc5)c(=O)c43)c2=O)cc1 = 1.84
5) O=c1c(-c2ccccc2[N+](=O)[O-])coc2c1c(O)cc1occ(-c3ccccc3[N+](=O)[O-])c(=O)c12 = 1.03
6) O=c1c(-c2cccc(O)c2)coc2c1c(O)cc1occ(-c3cccc(O)c3)c(=O)c12 = 0.99
7) O=c1c(-c2ccc(Cl)cc2)coc2cc3occ(-c4ccc(Cl)cc4)c(=O)c3c(O)c12 = 1.08
8) O=c1c(-c2ccc(OC(F)(F)F)cc2)coc2c1c(O)cc1occ(-c3ccc(OC(F)(F)F)cc3)c(=O)c12 = 1.04
9) COc1ccc(CCN(C)CCCC(C#N)(c2ccc(OC)c(OC)c2)C(C)C)cc1OC (stereo not given) [VERAPAMIL] = 2.39
10) Cc1ccc(-c2coc3c(c(O)cc4occ(-c5ccc(C)cc5)c(=O)c43)c2=O)cc1 = 2.04
11) COc1cc(-c2coc3cc4occ(-c5cc(OC)c(OC)c(OC)c5)c(=O)c4c(O)c3c2=O)cc(OC)c1OC = 0.72
12) O=c1c(-c2ccc(F)cc2)coc2cc3occ(-c4ccc(F)cc4)c(=O)c3c(O)c12 = 1.3
13) O=c1c(-c2ccccc2Cl)coc2cc3occ(-c4ccccc4Cl)c(=O)c3c(O)c12 = 0.85
14) O=c1c(-c2ccccc2F)coc2c1c(O)cc1occ(-c3ccccc3F)c(=O)c12 = 0.67
15) Cc1ccccc1-c1coc2cc3occ(-c4ccccc4C)c(=O)c3c(O)c2c1=O = 0.81
16) O=c1c(-c2cccc(F)c2)coc2c1c(O)cc1occ(-c3cccc(F)c3)c(=O)c12 = 0.82
17) COc1cc(-c2coc3c(c(O)cc4occ(-c5cc(OC)c(OC)c(OC)c5)c(=O)c43)c2=O)cc(OC)c1OC = 0.75
18) O=c1c(C2CC2)coc2cc3occ(C4CC4)c(=O)c3c(O)c12 = 0.86
19) O=c1c(C2CC2)coc2c1c(O)cc1occ(C3CC3)c(=O)c12 = 0.63
20) COc1ccc(-c2coc3c(c(O)cc4occ(-c5ccc(OC)c(OC)c5)c(=O)c43)c2=O)cc1OC = 1.64
21) COc1cccc(-c2coc3c(c(O)cc4occ(-c5cccc(OC)c5)c(=O)c43)c2=O)c1 = 1.28
22) O=c1c(-c2cccc(C(F)(F)F)c2)coc2cc3occ(-c4cccc(C(F)(F)F)c4)c(=O)c3c(O)c12 = 1.18
23) O=c1c(-c2cccs2)coc2cc3occ(-c4cccs4)c(=O)c3c(O)c12 = 0.67
24) O=c1c(-c2cccc(C(F)(F)F)c2)coc2c1c(O)cc1occ(-c3cccc(C(F)(F)F)c3)c(=O)c12 = 1.15
25) Cc1ccccc1-c1coc2c(c(O)cc3occ(-c4ccccc4C)c(=O)c32)c1=O = 1.53
26) O=c1c(-c2ccccc2C(F)(F)F)coc2c1c(O)cc1occ(-c3ccccc3C(F)(F)F)c(=O)c12 = 0.81
27) COc1ccccc1-c1coc2cc3occ(-c4ccccc4OC)c(=O)c3c(O)c2c1=O = 0.82
28) O=c1c(-c2ccc3c(c2)OCO3)coc2c1c(O)cc1occ(-c3ccc4c(c3)OCO4)c(=O)c12 = 0.7
29) O=c1c(-c2cccs2)coc2c1c(O)cc1occ(-c3cccs3)c(=O)c12 = 0.83
30) O=c1c(-c2ccccc2Cl)coc2c1c(O)cc1occ(-c3ccccc3Cl)c(=O)c12 = 1.09
31) O=c1c(-c2ccc(F)cc2)coc2c1c(O)cc1occ(-c3ccc(F)cc3)c(=O)c12 = 0.84
32) O=c1c(-c2c(F)cccc2Cl)coc2cc3occ(-c4c(F)cccc4Cl)c(=O)c3c(O)c12 = 1.06
33) O=c1c(-c2cccc(F)c2)coc2cc3occ(-c4cccc(F)c4)c(=O)c3c(O)c12 = 0.75
34) O=c1c(-c2cccc(Cl)c2)coc2cc3occ(-c4cccc(Cl)c4)c(=O)c3c(O)c12 = 0.87
35) O=c1c(-c2cccc(Cl)c2)coc2c1c(O)cc1occ(-c3cccc(Cl)c3)c(=O)c12 = 0.82

Where these numbers come from: ChEMBL document CHEMBL3822397
